# System: HeLa Kyoto
# method notes: melting temperature (median over replicates), in situ; higher = more thermally stable
# experimental parameters: cell cycle stage: G1/S

monomer sequence: MSASLVRATVRAVSKRKLQPTRAALTLTPSAVNKIKQLLKDKPEHVGVKVGVRTRGCNGLSYTLEYTKTKGDSDEEVIQDGVRVFIEKKAQLTLLGTEMDYVEDKLSSEFVFNNPNIKGTCGCGESFNI [ISCA1]
melting temperature, °C: 52.3
//
monomer sequence: MYTAIPQSGSPFPGSVQDPGLHVWRVEKLKPVPVAQENQGVFFSGDSYLVLHNGPEEVSHLHLWIGQQSSRDEQGACAVLAVHLNTLLGERPVQHREVQGNESDLFMSYFPRGLKYQEGGVESAFHKTSTGAPAAIKKLYQVKGKKNIRATERALNWDSFNTGDCFILDLGQNIFAWCGGKSNILERNKARDLALAIRDSERQGKAQVEIVTDGEEPAEMIQVLGPKPALKEGNPEEDLTADKANAQAAALYKVSDATGQMNLTKVADSSPFALELLISDDCFVLDNGLCGKIYIWKGRKANEKERQAALQVAEGFISRMQYAPNTQVEILPQGHESPIFKQFFKDWK [CAPG]
melting temperature, °C: 50.2
//
monomer sequence: MATDELATKLSRRLQMEGEGGGETPEQPGLNGAAAAAAGAPDEAAEALGSADCELSAKLLRRADLNQGIGEPQSPSRRVFNPYTEFKEFSRKQIKDMEKMFKQYDAGRDGFIDLMELKLMMEKLGAPQTHLGLKNMIKEVDEDFDSKLSFREFLLIFRKAAAGELQEDSGLCVLARLSEIDVSSEGVKGAKSFFEAKVQAINVSSRFEEEIKAEQEERKKQAEEMKQRKAAFKELQSTFK [EFHD2]
melting temperature, °C: 52.5
//
monomer sequence: MALKQISSNKCFGGLQKVFEHDSVELNCKMKFAVYLPPKAETGKCPALYWLSGLTCTEQNFISKSGYHQSASEHGLVVIAPDTSPRGCNIKGEDESWDFGTGAGFYVDATEDPWKTNYRMYSYVTEELPQLINANFPVDPQRMSIFGHSMGGHGALICALKNPGKYKSVSAFAPICNPVLCPWGKKAFSGYLGTDQSKWKAYDATHLVKSYPGSQLDILIDQGKDDQFLLDGQLLPDNFIAACTEKKIPVVFRLQEGYDHSYYFIATFITDHIRHHAKYLNA [ESD]
melting temperature, °C: 55.8
//
monomer sequence: MMAIRELKVCLLGDTGVGKSSIVCRFVQDHFDHNISPTIGASFMTKTVPCGNELHKFLIWDTAGQERFHSLAPMYYRGSAAAVIVYDITKQDSFYTLKKWVKELKEHGPENIVMAIAGNKCDLSDIREVPLKDAKEYAESIGAIVVETSAKNAINIEELFQGISRQIPPLDPHENGNNGTIKVEKPTMQASRRCC [RAB31]
melting temperature, °C: 54.6
//
monomer sequence: MDSALSDPHNGSAEAGGPTNSTTRPPSTPEGIALAYGSLLLMALLPIFFGALRSVRCARGKNASDMPETITSRDAARFPIIASCTLLGLYLFFKIFSQEYINLLLSMYFFVLGILALSHTISPFMNKFFPASFPNRQYQLLFTQGSGENKEEIINYEFDTKDLVCLGLSSIVGVWYLLRKHWIANNLFGLAFSLNGVELLHLNNVSTGCILLGGLFIYDVFWVFGTNVMVTVAKSFEAPIKLVFPQDLLEKGLEANNFAMLGLGDVVIPGIFIALLLRFDISLKKNTHTYFYTSFAAYIFGLGLTIFIMHIFKHAQPALLYLVPACIGFPVLVALAKGEVTEMFSYEESNPKDPAAVTESKEGTEASASKGLEKKEK [HM13]
melting temperature, °C: 60.5
//
monomer sequence: MLLKEYRICMPLTVDEYKIGQLYMISKHSHEQSDRGEGVEVVQNEPFEDPHHGNGQFTEKRVYLNSKLPSWARAVVPKIFYVTEKAWNYYPYTITEYTCSFLPKFSIHIETKYEDNKGSNDTIFDNEAKDVEREVCFIDIACDEIPERYYKESEDPKHFKSEKTGRGQLREGWRDSHQPIMCSYKLVTVKFEVWGLQTRVEQFVHKVVRDILLIGHRQAFAWVDEWYDMTMDEVREFERATQEATNKKIGIFPPAISISSIPLLPSSVRSAPSSAPSTPLSTDAPEFLSVPKDRPRKKSAPETLTLPDPEKKATLNLPGMHSSDKPCRPKSE [PITPNC1]
melting temperature, °C: 51.7
//
monomer sequence: MNQENPPPYPGPGPTAPYPPYPPQPMGPGPMGGPYPPPQGYPYQGYPQYGWQGGPQEPPKTTVYVVEDQRRDELGPSTCLTACWTALCCCCLWDMLT [CYSTM1]
melting temperature, °C: 59
//
monomer sequence: MHRRGVGAGAIAKKKLAEAKYKERGTVLAEDQLAQMSKQLDMFKTNLEEFASKHKQEIRKNPEFRVQFQDMCATIGVDPLASGKGFWSEMLGVGDFYYELGVQIIEVCLALKHRNGGLITLEELHQQVLKGRGKFAQDVSQDDLIRAIKKLKALGTGFGIIPVGGTYLIQSVPAELNMDHTVVLQLAEKNGYVTVSEIKASLKWETERARQVLEHLLKEGLAWLDLQAPGEAHYWLPALFTDLYSQEITAEEAREALP [SNF8]
melting temperature, °C: 52.9
//
monomer sequence: MENTENSVDSKSIKNLEPKIIHGSESMDSGISLDNSYKMDYPEMGLCIIINNKNFHKSTGMTSRSGTDVDAANLRETFRNLKYEVRNKNDLTREEIVELMRDVSKEDHSKRSSFVCVLLSHGEEGIIFGTNGPVDLKKITNFFRGDRCRSLTGKPKLFIIQACRGTELDCGIETDSGVDDDMACHKIPVEADFLYAYSTAPGYYSWRNSKDGSWFIQSLCAMLKQYADKLEFMHILTRVNRKVATEFESFSFDATFHAKKQIPCIVSMLTKELYFYH [CASP3]
melting temperature, °C: 55.7
//
monomer sequence: MADTTPNGPQGAGAVQFMMTNKLDTAMWLSRLFTVYCSALFVLPLLGLHEAASFYQRALLANALTSALRLHQRLPHFQLSRAFLAQALLEDSCHYLLYSLIFVNSYPVTMSIFPVLLFSLLHAATYTKKVLDARGSNSLPLLRSVLDKLSANQQNILKFIACNEIFLMPATVFMLFSGQGSLLQPFIYYRFLTLRYSSRRNPYCRTLFNELRIVVEHIIMKPACPLFVRRLCLQSIAFISRLAPTVP [TMEM33]
melting temperature, °C: 55

----------
# Test system: HeLa Kyoto;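 note: HeLa Kyoto cells synchronized by double thymidine or nocodazole block, proteins quantified by TMT10plex mass spectrometry, three independent biological replicates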
# method notes: melting temperature (median over replicates), in situ; higher = more thermally stable
# experimental parameters: cell cycle stage: G1/S
Form field: melting temperature (one value per entry).
measured metric: melting temperature (°C)

monomer sequence: MFFWCACCLMVAWRVSASDAEHCPELPPVDNSIFVAKEVEGQILGTYVCIKGYHLVGKKTLFCNASKEWDNTTTECRLGHCPDPVLVNGEFSSSGPVNVSDKITFMCNDHYILKGSNRSQCLEDHTWAPPFPICKSRDCDPPGNPVHGYFEGNNFTLGSTISYYCEDRYYLVGVQEQQCVDGEWSSALPVCKLIQEAPKPECEKALLAFQESKNLCEAMENFMQQLKESGMTMEELKYSLELKKAELKAKLL [C4BPB]
measured metric: melting temperature
numeric readout: 54.8

monomer sequence: MTSLTQRSSGLVQRRTEASRNAADKERAAGGGAGSSEDDAQSRRDEQDDDDKGDSKETRLTLMEEVLLLGLKDREGYTSFWNDCISSGLRGCMLIELALRGRLQLEACGMRRKSLLTRKVICKSDAPTGDVLLDEALKHVKETQPPETVQNWIELLSGETWNPLKLHYQLRNVRERLAKNLVEKGVLTTEKQNFLLFDMTTHPLTNNNIKQRLIKKVQEAVLDKWVNDPHRMDRRLLALIYLAHASDVLENAFAPLLDEQYDLATKRVRQLLDLDPEVECLKANTNEVLWAVVAAFTK [GOLPH3]
measured metric: melting temperature
numeric readout: 51.9

monomer sequence: MASAGDTQAGPRDAADQNFDYMFKLLLIGNSSVGKTSFLFRYADDSFTPAFVSTVGIDFKVKTVYRHDKRIKLQIWDTAGQERYRTITTAYYRGAMGFLLMYDIANQESFAAVQDWATQIKTYSWDNAQVILVGNKCDLEDERVVPAEDGRRLADDLGFEFFEASAKENINVKQVFERLVDVICEKMNESLEPSSSSGSNGKGPAVGDAPAPQPSSCSC [RAB3D]
measured metric: melting temperature
numeric readout: 57.2

monomer sequence: MRKIDLCLSSEGSEVILATSSDEKHPPENIIDGNPETFWTTTGMFPQEFIICFHKHVRIERLVIQSYFVQTLKIEKSTSKEPVDFEQWIEKDLVHTEGQLQNEEIVAHDGSATYLRFIIVSAFDHFASVHSVSAEGTVVSNLSS [HSPB11]
measured metric: melting temperature
numeric readout: 53.3

monomer sequence: MFSRAGVAGLSAWTLQPQWIQVRNMATLKDITRRLKSIKNIQKITKSMKMVAAAKYARAERELKPARIYGLGSLALYEKADIKGPEDKKKHLLIGVSSDRGLCGAIHSSIAKQMKSEVATLTAAGKEVMLVGIGDKIRGILYRTHSDQFLVAFKEVGRKPPTFGDASVIALELLNSGYEFDEGSIIFNKFRSVISYKTEEKPIFSLNTVASADSMSIYDDIDADVLQNYQEYNLANIIYYSLKESTTSEQSARMTAMDNASKNASEMIDKLTLTFNRTRQAVITKELIEIISGAAALD [ATP5C1]
measured metric: melting temperature
numeric readout: 58

monomer sequence: MGGKLSKKKKGYNVNDEKAKEKDKKAEGAATEEEGTPKESEPQAAAEPAEAKEGKEKPDQDAEGKAEEKEGEKDAAAAKEEAPKAEPEKTEGAAEAKAEPPKAPEQEQAAPGPAAGGEAPKAAEAAAAPAESAAPAAGEEPSKEEGEPKKTEAPAAPAAQETKSDGAPASDSKPGSSEAAPSSKETPAATEAPSSTPKAQGPAASAEEPKPVEAPAANSDQTVTVKE [BASP1]
measured metric: melting temperature
numeric readout: 48.2

Where these numbers come from: the supplement of paper PMC5998384
